B1: KRT18 (parent)
chain: KSQDLAKIMADIRAQYDELARKNR

Variants of: B1
Test: protein stability index of a GFP-peptide fusion (GPS, HEK-293T) (PSI 1-6); higher = more stable;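 note: lentivirally expressed fusions sorted by FACS into six bins by GFP to DsRed ratio, PSI derived from sequencing read proportions per bin multiplied by bin number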
Conditions: c terminus: a fixed tail appended
MEASURED_QUANTITY: protein stability index
Give a plain numeric answer without units written out.

# count of solved cases: 5
{"columns": ["SEQUENCE_CHAIN", "protein stability index"],
 "data": [
  ["KSQDLAKIMADIRAQDDELARKNR", 4.38],
  ["KSQDLAKIMGDIRAQYDELARKNR", 3.81],
  ["KSQDLAKIMADIRAQYRELARKNR", 2.61],
  ["KSQDLAKIMADIRAQYDELARKTR", 2.88],
  ["KSQDLAKIMEDIRAQYDELARKNR", 3.18]
]}

Consider KSQDLAKCMADIRAQYDELARKNR . Its measured protein stability index is 3.37

For record KSQDLAKIRADIRAQYDELARKNR the listed protein stability index is 3.8

Kindly note the recorded protein stability index for KSQDLAKIMADTRAQYDELARKNR , which is 4.07

Measured protein stability index, KSQDLKKIMADIRAQYDELARKNR : 2.28

Entry KSQDLAKIMADIRAQYDKLARKNR — recorded protein stability index = 1.99

Memo: KSQDLAKIMADIRAQYDELAIKNR , reported protein stability index: 3.24

Record KSQYLAKIMADIRAQYDELARKNR , field protein stability index: 1.88

// KSQDLAKMMADIRAQYDELARKNR : protein stability index value = 3.42

Lab note: KSQDLAKIMALIRAQYDELARKNR gave protein stability index of 1.52
